- Tested on: Influenza A virus
- Test: In vitro antiviral activity was evaluated in a plaque reduction assay against influenza A
- Assay type: functional, organism-based
Output yes (1) for records whose IC50 is lower than 300 ng/mL, no (0) for records at or above 300 ng/mL.

{"Molecule": "CCCN(CCC)C(=O)[C@@H]1OC(C(=O)O)=C[C@H](NC(=N)N)[C@H]1NC(C)=O", "Class assignment": "yes (1)"}
{"Molecule": "CCCNC(=O)[C@@H]1OC(C(=O)O)=C[C@H](NC(=N)N)[C@H]1NC(C)=O", "Class assignment": "yes (1)"}
{"Molecule": "CC(=O)N[C@H]1[C@H]([C@H](O)[C@H](O)CO)OC(C(=O)O)=C[C@@H]1N", "Class assignment": "no (0)"}
{"Molecule": "CCCN(C)C(=O)[C@@H]1OC(C(=O)O)=C[C@H](NC(=N)N)[C@H]1NC(C)=O", "Class assignment": "yes (1)"}
{"Molecule": "CCCN(C)C(=O)[C@@H]1OC(C(=O)O)=C[C@H](N)[C@H]1NC(C)=O", "Class assignment": "no (0)"}

Provenance of the data: ChEMBL document CHEMBL1159157
